- STUDY TARGET: full length Udorn AM2 protein (Influenza A virus)
- Sequence (P0DOF5 whole entry, looked up): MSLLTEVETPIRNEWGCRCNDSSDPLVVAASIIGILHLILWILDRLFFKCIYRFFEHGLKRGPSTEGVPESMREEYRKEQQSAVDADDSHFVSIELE
- ASSAY SUMMARY: cell-based
- Format: cell-based, influenza virus A/Udorn/72
- STATED CONDITIONS: pH 5.5, read-out: AM2 Remaining Activity After 100 μM inhibition
Exercise: for every item that follows, state its recorded remaining activity at 100 µM.
Please answer using the number first and the unit second.

Reported remaining activity at 100 µM of c1cc(CN2CCC3(CCCCC3)CC2)cs1 [Compound 3] : 90%

Reported remaining activity at 100 µM of C1CCC2(CC1)CCN(CC1CC1)CC2 [Compound 1] : 100%

Reported remaining activity at 100 µM of c1ncc(CN2CCC3(CCCCC3)CC2)[nH]1 [Compound 7] : 70%

Reported remaining activity at 100 µM of c1c[nH]c(CN2CCC3(CCCCC3)CC2)n1 [Compound 8] : 49%

Reported remaining activity at 100 µM of C1CCC2(CC1)CCN(C1=NCCN1)CC2 [BL-1743, hydroiodide, reference compound] : 25%

Reported remaining activity at 100 µM of CC1(C)CCNCC1 [Compound 19, 4,4-dimethylpiperidinium chloride] : 75%

Reported remaining activity at 100 µM of Cn1cc(CN2CCC3(CCCCC3)CC2)cn1 [Compound 4] : 100%

Reported remaining activity at 100 µM of Cc1cc(CN2CCC3(CCCCC3)CC2)no1 [Compound 5] : 100%

Reported remaining activity at 100 µM of C1CCC2(CC1)CCN(CC1CCCC1)CC2 [Compound 2] : 100%

Reported remaining activity at 100 µM of CCC1(C)CCNCC1 [Compound 20, 4-ethyl-4-methylpiperidinium chloride] : 87%

Reported remaining activity at 100 µM of c1ccc(CN2CCC3(CCCCC3)CC2)nc1 [Compound 6] : 100%
